Cited source: patent US20120115900A1

molecular target: human Kv7.2+3 (Homo sapiens, UniProt O43525+O43526); assay: FLIPR-based characterization of Kv7.2+3 modulators (thallium (I) sensitive BTC fluorescence assay); details: HEK293 cells over-expressing human Kv7.2+3; Tl+ influx, FLIPR; 50% of channel activity compared to retigabine control responses; mean of at least two test runs
metric: EC50 (nM)

Cc1cc(N2CCc3ncccc3C2)nc(N2CCC(F)(F)CC2)c1NC(=O)Cc1cc(F)cc(F)c1 [Compound 1.7] : 220

P. Cc1cccnc1C(=O)Nc1c(C)cc(N2CCc3ncccc3C2)nc1N1CCC(F)(F)CC1 [Compound 1.15]
Q. Cc1cc(N2CCc3ncccc3C2)nc(N2CC[C@@H](F)C2)c1NC(=O)Cc1cc(F)cc(F)c1 [Compound 1.5]
R. Cc1cc(N2CCc3ncccc3C2)nc(N2CCC(F)(F)CC2)c1NC(=O)c1ncoc1C [Compound 1.9]
S. Cc1nc(C(=O)Nc2c(C)cc(N3CCc4ncccc4C3)nc2N2CCC(F)(F)CC2)c(C)o1 [Compound 1.16]
T. Cc1cc(N2CCc3ncccc3C2)nc(N2CCC(F)(F)CC2)c1NC(=O)CC1CC1 [Compound 1.13]
Data request: List the 5 entries from lowest EC50 to highest EC50 value. Lab note: record answer as labels in requested order.
Data returned: R, Q, T, P, S
(R: 50 nM, Q: 190 nM, T: 1100 nM, P: 2900 nM, S: 5400 nM)
